- tested.target: hROMK (human Kir1.1) (Homo sapiens (Human), UniProt P48048)
- Sequence (P48048 whole entry): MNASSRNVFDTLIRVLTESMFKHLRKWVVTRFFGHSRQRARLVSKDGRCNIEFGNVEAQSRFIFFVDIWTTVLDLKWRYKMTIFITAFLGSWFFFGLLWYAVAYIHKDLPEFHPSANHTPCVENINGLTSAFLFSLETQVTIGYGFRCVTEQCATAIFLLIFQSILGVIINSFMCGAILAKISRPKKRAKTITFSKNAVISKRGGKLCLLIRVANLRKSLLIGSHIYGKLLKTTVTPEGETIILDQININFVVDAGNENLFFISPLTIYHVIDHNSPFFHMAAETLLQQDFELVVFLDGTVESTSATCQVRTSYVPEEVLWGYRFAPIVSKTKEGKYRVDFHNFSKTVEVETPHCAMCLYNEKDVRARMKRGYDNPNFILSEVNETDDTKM
- protocol.description: cell-based
- measurement.parameters: CHO T-Rex hROMK stable cell line; thallium flux; 10-point concentration response curve; read-out: Human ROMK Th Flux IC50
pIC50: −log10 of the molar value.
Assign class by pIC50: not lower than 7 means true (1); lower than 7 means false (0).

Solved cases (4 shown):
Cc1cc(-c2ncc(CN3C[C@@H](c4ccc5c(c4C)COC5=O)N[C@@H](C)C3)s2)ncc1C#N : true (1)
Cc1noc(-c2ccc(CN3CCN[C@H](c4ccc5c(c4C)COC5=O)C3)cn2)n1 : false (0)
Cc1cc(-n2cc(CN3CCN(C)[C@H](c4ccc5c(c4C)COC5=O)C3)cn2)ncc1C#N : true (1)
Cc1c([C@@H]2CN(Cc3cnn(-c4ccn(C(F)F)c(=O)c4)n3)C[C@H](C)N2)ccc2c1COC2=O : false (0)

stdin: Hello, I need to know if Cc1c([C@@H]2CN(Cc3cnc(-n4cc(C#N)c(C5CC5)n4)nc3)CCN2)ccc2c1COC2=O has measured pIC50 not below 7. Thanks!
stdout: true (1)

stdin: Hello, I need to know if COc1cc(-n2cc(CN3CC[C@@H](O)[C@H](c4ccc5c(c4C)COC5=O)C3)cn2)ncc1C#N has measured pIC50 not below 7. Thanks!
stdout: true (1)

---

- tested.target: hROMK (human Kir1.1) (Homo sapiens (Human), UniProt P48048)
- protocol.description: cell-based
- measurement.parameters: CHO T-Rex hROMK stable cell line; thallium flux; 10-point concentration response curve; read-out: Human ROMK Th Flux IC50
recorded.endpoint: IC50 (nM)
Hi! Could you send only the number? It should be in nM, unit omitted.

These recorded examples may help you get a feel for the data.
Cc1cc(-n2cc(CN3CCN[C@H](c4ccc5c(c4C)COC5=O)C3)c(C3CC3)n2)ncc1C#N [Example 237-I] : 69
Cc1cc(-n2cc(CN3CCN[C@H](c4ccc5c(c4C)COC5=O)C3)nn2)ncc1C#N [Example 23-I] : 30
COc1cc(N2CC(CN3CCN[C@H](c4ccc5c(c4C)COC5=O)C3)CC2=O)ncc1C#N (some centres unmarked) [Example 159-I] : 16
Cc1cc(-c2cc(CN3CC(c4ccc5c(c4C)COC5=O)NC(C)(C)C3)on2)ncc1C#N (single isomer, unassigned) [Example 268-I] : 20
Cc1c([C@@H]2CN(Cc3ccc(-c4ccc(=O)n(C)n4)nc3)C[C@H](C)N2)ccc2c1COC2=O [Example 120-I] : 160

stdin: Would you kindly share the measured IC50 for Cc1ncn(-c2ccc(CN3CCN[C@H](c4ccc5c(c4C)COC5=O)C3)cn2)n1 [Example 67-I] ?
stdout: 110

stdin: Would you kindly share the measured IC50 for Cc1cc(-n2ncc(C(C)N3CCN[C@H](c4ccc5c(c4C)COC5=O)C3)n2)ncc1C#N (single isomer, unassigned) [Example 121-I] ?
stdout: 31

stdin: Would you kindly share the measured IC50 for Cc1cc(N2CCCS2(=O)=O)cc(-n2cc(CN3C[C@@H](c4ccc5c(c4C)COC5=O)N[C@@H](C)C3)cn2)n1 [Example 253-I] ?
stdout: 400

stdin: Would you kindly share the measured IC50 for COc1c(CN2CCO[C@H](c3ccc4c(c3C)COC4=O)C2)cnn1-c1cc(C)c(C#N)cn1 [Example 26-I] ?
stdout: 69

stdin: Would you kindly share the measured IC50 for Cc1c([C@@H]2CN(Cc3cnc(-n4cncn4)nc3)CCN2)ccc2c1COC2=O [Example 234-I] ?
stdout: 78

stdin: Would you kindly share the measured IC50 for COc1cc(-n2cnc(CN3C[C@@H](c4ccc5c(c4C)COC5=O)N[C@@H](C)C3)c2)ncc1C#N [Example 97-I] ?
stdout: 28

stdin: Would you kindly share the measured IC50 for Cc1cc(-n2nnc(CN3C[C@@H](c4ccc5c(c4C)COC5=O)N[C@@H](C)C3)n2)ccc1C#N [Example 265-I] ?
stdout: 22

stdin: Would you kindly share the measured IC50 for Cc1c([C@@H]2CN(Cc3cnn(-c4ccnc(C(F)(F)F)c4)c3)C[C@H](C)N2)ccc2c1COC2=O [Example 128-I] ?
stdout: 66

stdin: Would you kindly share the measured IC50 for Cc1cc(-n2ncc(CN3C[C@H](C)N(O)[C@H](c4ccc5c(c4C)COC5=O)C3)n2)ncc1C#N [Example 246-I] ?
stdout: 870

---

- tested.target: hERG channels (Homo sapiens (Human))
- Sequence (Q12809 whole entry): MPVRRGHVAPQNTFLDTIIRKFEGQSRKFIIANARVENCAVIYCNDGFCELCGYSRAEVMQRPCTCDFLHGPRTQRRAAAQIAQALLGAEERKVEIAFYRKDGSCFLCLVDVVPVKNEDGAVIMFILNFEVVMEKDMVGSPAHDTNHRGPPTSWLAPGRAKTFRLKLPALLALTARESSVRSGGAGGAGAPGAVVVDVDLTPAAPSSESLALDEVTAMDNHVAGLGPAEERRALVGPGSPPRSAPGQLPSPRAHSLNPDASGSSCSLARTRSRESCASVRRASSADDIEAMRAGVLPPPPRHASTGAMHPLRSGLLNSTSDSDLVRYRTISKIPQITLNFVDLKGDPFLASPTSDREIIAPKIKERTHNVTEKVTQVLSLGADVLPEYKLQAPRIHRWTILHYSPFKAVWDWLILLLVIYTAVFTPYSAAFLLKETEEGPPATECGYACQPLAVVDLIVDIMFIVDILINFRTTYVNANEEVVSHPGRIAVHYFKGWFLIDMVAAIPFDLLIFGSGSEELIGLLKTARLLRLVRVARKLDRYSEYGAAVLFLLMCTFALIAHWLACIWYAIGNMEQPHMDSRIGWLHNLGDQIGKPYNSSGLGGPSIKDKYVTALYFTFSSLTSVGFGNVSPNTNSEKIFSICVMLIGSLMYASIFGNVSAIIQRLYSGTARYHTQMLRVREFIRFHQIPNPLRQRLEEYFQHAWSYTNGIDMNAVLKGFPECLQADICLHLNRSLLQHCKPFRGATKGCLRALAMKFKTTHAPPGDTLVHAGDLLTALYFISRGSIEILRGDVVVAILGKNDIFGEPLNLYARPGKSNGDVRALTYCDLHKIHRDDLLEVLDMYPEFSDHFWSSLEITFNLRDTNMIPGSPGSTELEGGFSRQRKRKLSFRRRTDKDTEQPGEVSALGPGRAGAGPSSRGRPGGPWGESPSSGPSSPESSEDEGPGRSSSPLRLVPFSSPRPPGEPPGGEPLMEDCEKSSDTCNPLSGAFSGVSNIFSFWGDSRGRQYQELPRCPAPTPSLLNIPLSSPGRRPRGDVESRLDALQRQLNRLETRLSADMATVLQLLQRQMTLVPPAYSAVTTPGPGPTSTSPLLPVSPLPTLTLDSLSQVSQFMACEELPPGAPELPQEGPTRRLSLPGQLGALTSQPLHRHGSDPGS
- protocol.description: hERG Manual Patch Clamp Assay
- Format: cell-based
- measurement.parameters: human, HEK 293 cells stably expressing hERG channels, pH 7.4, 1 uM, read-out: hERG EP % Inh @ 1 uM
recorded.endpoint: inhibition at 1 µM (%)
Hi! Could you send only the number? It should be in %, unit omitted.

These recorded examples may help you get a feel for the data.
Cc1cc(-n2ncc(CN3CCN[C@H](c4ccc5c(c4C)COC5=O)C3)n2)nc(C)c1C#N : 6.1
Cc1c([C@@H]2CN(Cc3cnn(-c4cccc(N5CCOC5=O)n4)c3)C[C@H](C)N2)ccc2c1COC2=O : 9.1
COc1cc(-n2cc(CN3CCN[C@H](c4ccc5c(c4C)COC5=O)C3)cn2)ncc1C#N : 15
Cc1cc(-n2cc(CN3CC(=O)N[C@H](c4ccc5c(c4C)COC5=O)C3)cn2)ncc1C#N : 5.8
Cc1cc(-n2nnc(CN3C[C@@H](c4ccc5c(c4C)COC5=O)N[C@@H](C)C3)n2)ccc1C#N : 20
Cc1cc(-n2cc(CN3CCN[C@H](c4ccc5c(c4C)COC5=O)C3)c(C3CC3)n2)ncc1C#N : 37
Cc1cc(-n2cc(CN3CC(C)O[C@H](c4ccc5c(c4C)COC5=O)C3)cn2)ncc1C#N (stereo partly drawn) : 8.3
COc1cc(N2CC(CN3CCN[C@H](c4ccc5c(c4C)COC5=O)C3)CC2=O)ncc1C#N (stereo partly drawn) : 21
Cc1cc(-n2cc(CN3CCC(C)(O)C(c4ccc5c(c4C)COC5=O)C3)cn2)ncc1C#N (single isomer, unassigned) : 4.2
Cc1c([C@@H]2CN(Cc3ccc(-c4ccc5oc(=O)n(C)c5c4)nc3)CCO2)ccc2c1COC2=O : 26

stdin: Would you kindly share the measured inhibition at 1 µM for Cc1cc(-n2cc(CN3CC[C@@H](O)[C@H](c4ccc5c(c4C)COC5=O)C3)c(C(F)F)n2)ncc1C#N ?
stdout: 17

stdin: Would you kindly share the measured inhibition at 1 µM for COc1cc(-n2cc(CN3CC[C@@H](O)[C@H](c4ccc5c(c4C)COC5=O)C3)cn2)ncc1C#N ?
stdout: 22

stdin: Would you kindly share the measured inhibition at 1 µM for COc1cc(-n2cc(CCN3CCO[C@H](c4ccc5c(c4C)COC5=O)C3)cn2)ncc1C#N ?
stdout: 40

stdin: Would you kindly share the measured inhibition at 1 µM for COc1cc(-n2ncc(CN3CCN[C@H](c4ccc5c(c4C)COC5=O)C3)n2)ncc1C#N ?
stdout: 22

stdin: Would you kindly share the measured inhibition at 1 µM for COc1ncnc(-n2cc(CN3C[C@@H](c4ccc5c(c4C)COC5=O)N[C@@H](C)C3)cn2)n1 ?
stdout: 11

---

- tested.target: hROMK (human Kir1.1) (Homo sapiens (Human), UniProt P48048)
- protocol.description: cell-based
- measurement.parameters: CHO T-Rex hROMK stable cell line; thallium flux; 10-point concentration response curve; read-out: Human ROMK Th Flux IC50
recorded.endpoint: IC50
I'd appreciate it if you included the unit after the number.

stdin: Would you kindly share the measured IC50 for CC(=O)N1CCN(Cc2cnn(-c3cc(C)c(C#N)cn3)c2)C[C@H]1c1ccc2c(c1C)COC2=O ?
stdout: 1700 nM

stdin: Would you kindly share the measured IC50 for Cc1cc(-c2cc(CN3C[C@@H](c4ccc5c(c4C)COC5=O)N[C@@H](C)C3)on2)ncc1C#N ?
stdout: 6.6 nM

stdin: Would you kindly share the measured IC50 for COc1cc(-n2cc(CN3CCN[C@H](c4ccc5c(c4C)COC5=O)C3)nn2)nc(C)c1C#N ?
stdout: 43 nM

stdin: Would you kindly share the measured IC50 for CCc1nn(-c2ncc(CN3CCN[C@H](c4ccc5c(c4C)COC5=O)C3)cn2)cc1C#N ?
stdout: 14 nM

---

Each record here notes measured inhibition at 1 µM.
- tested.target: hERG channels (Homo sapiens (Human))
- protocol.description: hERG Manual Patch Clamp Assay
- Type: cell-based
- measurement.parameters: human, HEK 293 cells stably expressing hERG channels, pH 7.4, 1 uM, read-out: hERG EP % Inh @ 1 uM
Hi! Could you send only the number? It should be in %, unit omitted.

These recorded examples may help you get a feel for the data.
CCc1nn(-c2ncc(CN3CCN[C@H](c4ccc5c(c4C)COC5=O)C3)cn2)cc1C#N [Example 228-I] : 16
COc1cc(N2CC(CN3C[C@@H](c4ccc5c(c4C)COC5=O)N[C@@H](C)C3)CC2=O)ncc1C#N (single isomer, unassigned) [Example 170-I] : 26
COc1cc(-n2cc(CN3CC(CO)NC(c4ccc5c(c4C)COC5=O)C3)cn2)ncc1C#N (single isomer, unassigned) [Example 89-III] : 14
[2H]C([2H])([2H])Oc1cc(-n2cc(CN3CCN[C@H](c4ccc5c(c4C)COC5=O)C3)nn2)ncc1C#N [Example 263-I] : 10
Cc1c([C@@H]2CN(Cc3cnc(-n4cc(C#N)c(C(F)F)n4)nc3)CCN2)ccc2c1COC2=O [Example 229-I] : 25
Cc1cc(-n2cc(CN3CCNC(c4ccc5c(c4C)COC5=O)C3C)cn2)ncc1C#N (centres unmarked) [Example 115-I] : 45

stdin: Would you kindly share the measured inhibition at 1 µM for Cc1cc(-n2cc(CN3CCO[C@H](c4ccc5c(c4C)COC5=O)C3)cn2)ncc1C#N [Example 1-I] ?
stdout: 26
